# target-under-test: SPE-15/HUM-3 (Caenorhabditis elegans, UniProt Q9TZI9)
# Construct: motor-neck domain residues 1-841, N-terminal 6xHis, C-terminal GSG linker + RGSIDTWV tag kept; co-expressed with human calmodulin in ExpiSf9; with Actin, alpha skeletal muscle (rabbit, Oryctolagus cuniculus); Calmodulin (human light chain, co-expressed)
# Sequence (Q9TZI9 1-841): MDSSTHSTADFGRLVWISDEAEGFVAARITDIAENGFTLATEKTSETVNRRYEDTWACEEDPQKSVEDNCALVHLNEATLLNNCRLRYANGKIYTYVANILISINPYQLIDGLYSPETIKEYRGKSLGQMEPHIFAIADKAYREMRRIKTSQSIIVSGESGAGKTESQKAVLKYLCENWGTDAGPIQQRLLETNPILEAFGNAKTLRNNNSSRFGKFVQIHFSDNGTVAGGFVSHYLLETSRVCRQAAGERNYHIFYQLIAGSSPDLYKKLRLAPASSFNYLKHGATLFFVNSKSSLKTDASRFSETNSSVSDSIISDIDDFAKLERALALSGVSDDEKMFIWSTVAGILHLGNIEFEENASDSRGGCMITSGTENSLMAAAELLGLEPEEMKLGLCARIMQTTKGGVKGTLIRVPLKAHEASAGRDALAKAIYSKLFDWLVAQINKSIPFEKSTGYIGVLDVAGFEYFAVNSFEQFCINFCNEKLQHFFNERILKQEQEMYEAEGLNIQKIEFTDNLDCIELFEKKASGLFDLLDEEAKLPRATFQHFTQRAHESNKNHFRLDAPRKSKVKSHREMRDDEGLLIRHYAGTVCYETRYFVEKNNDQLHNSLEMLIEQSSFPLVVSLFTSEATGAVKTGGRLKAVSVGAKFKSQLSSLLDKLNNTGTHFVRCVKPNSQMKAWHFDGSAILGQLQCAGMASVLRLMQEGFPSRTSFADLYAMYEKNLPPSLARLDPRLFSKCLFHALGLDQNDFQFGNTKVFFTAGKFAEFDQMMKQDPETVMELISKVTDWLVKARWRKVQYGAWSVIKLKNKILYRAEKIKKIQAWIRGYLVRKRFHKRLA
# assay: stopped-flow pyrene-actin, ADP/ATP competition
# Assay type: binding
# assay-context: bound to pyrene-labelled rabbit F-actin; competition with ATP; pH 7.0, 20 °C, 25 mM KCl, 5 mM MgCl2, probably misprint for µM; read-out: affinity for ADP
recorded-endpoint: Kd (µM)
Supply the numeric figure in µM, leaving out any unit text.

input: What Kd value was documented for this molecule, `Nc1ncnc2c1ncn2[C@@H]1O[C@H](COP(=O)(O)OP(=O)(O)O)[C@@H](O)[C@H]1O` ?
output: 18000

###

# target-under-test: human MYO6 (Homo sapiens, UniProt Q9UM54)
# Construct: with Actin, alpha skeletal muscle (rabbit, Oryctolagus cuniculus); Calmodulin (light chain)
# Sequence (Q9UM54 1-840 limits assumed): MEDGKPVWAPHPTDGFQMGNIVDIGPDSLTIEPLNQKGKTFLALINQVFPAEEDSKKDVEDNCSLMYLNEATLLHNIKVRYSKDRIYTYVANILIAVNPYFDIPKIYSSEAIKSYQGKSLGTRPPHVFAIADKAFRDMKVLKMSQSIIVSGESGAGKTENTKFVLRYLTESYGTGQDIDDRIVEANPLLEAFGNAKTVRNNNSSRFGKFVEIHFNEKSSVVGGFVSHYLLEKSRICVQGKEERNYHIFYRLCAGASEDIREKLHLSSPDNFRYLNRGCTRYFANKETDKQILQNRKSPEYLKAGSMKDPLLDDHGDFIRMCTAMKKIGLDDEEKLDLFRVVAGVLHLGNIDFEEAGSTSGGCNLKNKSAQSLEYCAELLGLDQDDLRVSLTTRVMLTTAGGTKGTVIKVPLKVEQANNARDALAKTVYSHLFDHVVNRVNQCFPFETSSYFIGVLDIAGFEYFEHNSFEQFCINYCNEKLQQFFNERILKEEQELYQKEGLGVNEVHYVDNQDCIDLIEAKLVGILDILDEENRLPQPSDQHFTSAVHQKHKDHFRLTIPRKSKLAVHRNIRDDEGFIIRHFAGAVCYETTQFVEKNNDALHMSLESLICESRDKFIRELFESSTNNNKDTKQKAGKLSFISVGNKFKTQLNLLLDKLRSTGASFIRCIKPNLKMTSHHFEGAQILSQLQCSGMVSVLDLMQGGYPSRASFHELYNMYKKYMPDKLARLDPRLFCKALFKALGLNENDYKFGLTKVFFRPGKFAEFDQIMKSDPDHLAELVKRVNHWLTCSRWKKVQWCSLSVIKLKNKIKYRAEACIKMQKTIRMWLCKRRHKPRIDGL
# assay: stopped-flow pyrene-actin, ADP/ATP competition
# Format: binding
# assay-context: bound to pyrene-labelled rabbit F-actin; competition with ATP; pH 7.0, 20 °C, 25 mM KCl, 5 mM MgCl2, probably misprint for µM; read-out: affinity for ADP
recorded-endpoint: Kd (µM)
Express your answer in µM, writing the number without its unit.

input: Which Kd reading was recorded for the compound Nc1ncnc2c1ncn2[C@@H]1O[C@H](COP(=O)(O)OP(=O)(O)O)[C@@H](O)[C@H]1O [ADP] ?
output: 6000
